The origin of these recorded values is PubChem BioAssay (NCI).

Provide the reported growth of each item.
- Test system: SF-268 CNS
- experimental protocol: NCI-60 one-dose screen, 48 h (100 = growth as untreated, 0 = no growth, -100 = all killed)
- particulars: 10 µM unless noted
Compounds without any hit were thinned out: in the full panel of roughly 83,000, 20% have a hit.
Numbers only, in %.

Go through the items and report each one's growth.
1. C=CCNC(=O)Cc1c(-c2ccc(OC)cc2)oc2c(OC)c3c(c(OC)c12)OCO3
2. CCOC(=O)c1cc2c(n1Cc1cc(OC)cc(OC)c1Br)-c1nc(NC(C)=O)sc1CCC2
3. COc1ccc(/C=N\Nc2nc(SCC(C)C)nc(-c3ccc(OC)cc3)c2C#N)cc1
4. COC(=O)[C@H]1Cc2c([nH]c3ccccc23)[C@@H](c2cccs2)N1
5. NCCOCCOc1ccccc1

Reply:
1: 96.2; 2: 67.1; 3: 50.9; 4: 98.9; 5: 97.8

* * *

- System: ACHN renal
- experimental protocol: NCI-60 one-dose screen, 48 h (100 = growth as untreated, 0 = no growth, -100 = all killed)
- particulars: 10 µM unless noted
Compounds without any hit were thinned out: in the full panel of roughly 83,000, 20% have a hit.
So I've got a bunch of compounds here, and I need their growth values.
Numbers only, in %.

Some compounds with known growth results, for comparison:
compound=COc1cc(NS(=O)(=O)C(C)C)cc(-c2cc(-c3ccc(N4CCNCC4)cc3)cnc2N)c1 recorded_measurement=93.2
compound=O=C1C=C(Nc2ccccc2)c2ncccc2C1=O recorded_measurement=-98.3
compound=CCN(CC)CCOc1ccccc1C recorded_measurement=101
compound="CC(=O)N1N=C(c2ccc(F)cc2)CC1c1sc(N(C)Cc2ccccc2)nc1Cl (stereo not drawn)" recorded_measurement=102
compound=CCCCn1c(C(=O)c2c[nH]c3ccccc23)n[nH]c1=S recorded_measurement=102

Look up growth for the entries below, preserving their order.
1. CCNC(=S)n1nc(SC)c(C(=O)OCC)c1N
2. O=[N+]([O-])c1ccc2[nH]c3nccc(NCc4cccc(Cl)c4)c3c2c1

Reply:
1: 96.7; 2: 68.2

Quick request: growth for each listed item, please.
1. Cc1cnc(C(=O)NNc2nc3sc4c(c3c(=O)[nH]2)C(C)CCC4)cn1 (stereo not drawn)
2. COc1ccc(-c2csc(NC(=O)CN3CCN(CCO)CC3)n2)cc1NS(=O)(=O)c1cccc2c(N(C)C)cccc12
3. CC(=O)c1nn(-c2ccccc2)/c(=N/N=Cc2cn(-c3ccccc3)nc2-c2cc3ccccc3oc2=O)s1

Reply:
11.8
87
101

* * *

- Test system: HOP-92 NSCLC
- experimental protocol: NCI-60 one-dose screen, 48 h
- particulars: 10 µM unless noted
Compounds without any hit were thinned out: in the full panel of roughly 83,000, 20% have a hit. Calls of active or inactive are those of the source. How the source made its calls: active means growth percent below 10; inactive means the rest.
Allowed answers: label 1 (active), label 0 (inactive)

Worked examples, 5 compounds total:
compound=O=C(Nc1ccc2ncsc2c1)c1csc(Nc2ccc3[nH]ncc3c2)n1 group="label 0"
compound=C#CCn1cnc2cnc(Nc3cccc(NC(=O)CCl)c3)nc21 group="label 0"
compound=O=C(c1cccc(Br)c1)N1CCN(c2ccnc3cc(Cl)ccc23)CC1 group="label 0"
compound=CCOC(=O)c1nnn(Cc2cc(=O)oc3c2ccc2ccccc23)c1C group="label 0"
compound=C=C(C)[C@@H]1CC[C@]2(C)[C@H](CC(=O)N[C@H]3[C@@H]4C[C@](C)(C(=O)OC)CC[C@]4(C)CC[C@]32C)[C@@]1(C)CCC#N group="label 0"

Query: Each compound tested received a call. Report the one for `COc1cc(/C=C2\CCC/C(=C\c3cc(CN4CCCC4)c(O)c(OC)c3)C2=O)cc(CN2CCCC2)c1O` .
Reply: label 0

Query: // param item: `Cc1[nH]c(C(=O)Nc2nc3ccc(NC(=O)CCN)cc3s2)c(Cl)c1Cl` ; yields the recorded call
Reply: label 0

Query: Please let me know the test result on file for CCCCCC#CC1OC23CCCCC2C(C#N)(C(=N)O3)C1(C#N)C#N (stereo not drawn) .
Reply: label 0

Query: Status in this test for `Cn1c(=O)c2c(nc(Nc3cc(=O)[nH]c(=O)[nH]3)n2Cc2ccccc2)n(C)c1=O` ?
Reply: label 0

Query: Per the assay record, what outcome was assigned to `CC/C(=C(/c1ccc(Cl)cc1)c1ccc(OCCN2CCOCC2)cc1)c1ccccc1` ?
Reply: label 0

Query: recorded result category for `COc1cc(-c2nc(SCCC(C)C)nc(Nc3ccc(F)cc3)c2C#N)cc(OC)c1OC` in this test
Reply: label 0

Query: Field: outcome | Entry: `Cc1ccc(/C=C(\C#N)c2cc3ccccc3[nH]2)cc1`
Reply: label 0

Query: Assay result, entry `CCCCCCCCCCCCCCCCCCOc1cccc(CC(=O)OCC[N+](CC)(CC)CC)c1` — outcome?
Reply: label 0

Query: Could you kindly confirm the outcome this assay logged for `Cc1ccc(Cc2cnc(NC(=O)c3cc(C)oc3C)s2)cc1` ?
Reply: label 0

Query: // param item: CCOC(=O)CC1CSC(c2cccc(Cl)c2)=N1 (stereo not drawn) ; yields the recorded call
Reply: label 0

Query: Any idea what this test logged for `C=C1C(=O)O[C@H]2[C@H]1CC/C(COC(=O)NCCCCNC(=O)OC/C1=C/CC[C@@]3(C)O[C@H]3[C@H]3OC(=O)C(=C)[C@@H]3CC1)=C\CC[C@@]1(C)O[C@@H]21` ?
Reply: label 1

Query: Which outcome was entered for the compound `Cc1ccc(NC(=O)c2sc3nc(C)c(C(=O)c4ccccc4)cc3c2N)cc1` in this test?
Reply: label 0
